In this section, each of the compounds is paired with its reported viability, T/C.
System: 168753-222-R-J1-PDC complex spheroid viability;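 note: luminescence signal used as surrogate for viable cell amount; viability measured after seven days of drug exposure; 100% = DMSO vehicle control wells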
TEST PROTOCOL: Anticancer human tumor 168753-222-R-J1-PDC patient-derived bladder carcinoma cell line growth inhibition [CLK]
PROTOCOL CONDITIONS: second compound 3.16 µM; first compound 10 µM; stronger effect = lower value
ENDPOINT: viability, T/C (%)

COMPOUND | OBSERVED
COc1ccc([C@@H](O)c2cc(-c3ncnc4cc(N5CCOCC5)ccc34)c(F)cc2Cl)nn1 + CN1CCN(c2cc(C(=O)Nc3cc4cc(-c5cnn(C)c5)ccc4cn3)ccn2)CC1 | 0.54
C#Cc1c(F)ccc2cc(O)cc(-c3ncc4c(N5CC6CCC(C5)N6)nc(OCC56CCCN5CC(F)C6)nc4c3F)c12 (stereo not given) + CN1CCN(c2cc(C(=O)Nc3cc4cc(-c5cnn(C)c5)ccc4cn3)ccn2)CC1 | 0.22
O=c1[nH]cc(F)c(=O)[nH]1 + CN1CCN(c2cc(C(=O)Nc3cc4cc(-c5cnn(C)c5)ccc4cn3)ccn2)CC1 | 1.57
CC1(C)CCC(CN2CCN(c3ccc(C(=O)NS(=O)(=O)c4ccc(NCC5CCOCC5)c([N+](=O)[O-])c4)c(Oc4cnc5[nH]ccc5c4)c3)CC2)=C(c2ccc(Cl)cc2)C1 + CN1CCN(c2cc(C(=O)Nc3cc4cc(-c5cnn(C)c5)ccc4cn3)ccn2)CC1 | 0.49
C=CC(=O)N1CCN(c2nc(=O)n(-c3c(C)ccnc3C(C)C)c3nc(-c4c(O)cccc4F)c(F)cc23)C(C)C1 (stereo not given) + CNC(=O)c1ccc(Nc2nc(OC3CCCC3)c3c(-c4ccc5nc(C)oc5c4)c[nH]c3n2)c(OC)c1 | 19.4
